All figures here come from patent US12065444B2.

ASSAY SYSTEM: human adenosine A2a receptor (Homo sapiens)
Sequence (P29274 whole entry): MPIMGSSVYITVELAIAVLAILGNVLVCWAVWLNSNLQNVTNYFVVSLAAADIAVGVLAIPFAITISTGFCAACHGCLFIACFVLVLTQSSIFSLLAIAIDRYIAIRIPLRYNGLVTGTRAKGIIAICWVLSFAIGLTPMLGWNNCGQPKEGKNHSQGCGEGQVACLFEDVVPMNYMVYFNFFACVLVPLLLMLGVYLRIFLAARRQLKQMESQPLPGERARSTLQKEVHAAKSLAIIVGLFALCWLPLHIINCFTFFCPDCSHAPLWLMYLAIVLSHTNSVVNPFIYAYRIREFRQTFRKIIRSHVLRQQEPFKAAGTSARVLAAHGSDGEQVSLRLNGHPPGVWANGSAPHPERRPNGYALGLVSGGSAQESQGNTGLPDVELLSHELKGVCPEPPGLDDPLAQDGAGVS
EXPERIMENTAL DETAILS: Adenosine A2a receptor whole cell cyclic AMP assay
RUN PARAMETERS: A2a @ 100 μM Adenosine (A2a cAMP IC50), HEK293 cells stably expressing human A2a; 100 μM adenosine; 1 hour compound treatment
pIC50: −log10 of the molar value.
READOUT NAME: pIC50

Some solved entries appear below for comparison.
COc1ccc(-c2nc(N)n3nnnc3c2-c2cc(Cl)nc(C(F)(F)F)c2)cc1 < 6.00
Nc1nc(-c2ccc(F)cc2)c(-c2ccc3ncc(C(F)F)n3c2)n2nnnc12 6.00 to 7.00
Nc1nc(-c2ccc(F)cc2)c(-c2cc(Cl)nc(C(F)(F)F)c2)c2nnnn12 < 6.00
COc1ccc(-c2nc(N)c3nnnn3c2-c2ccc3ncc(C)n3c2)cc1 < 6.00

Now let's try a different one.
Dear colleague, I am looking for the recorded pIC50 of the following molecule: Cc1cnc2ccc(-c3c(-c4ccc(F)cc4)nc(N)c4nnnn34)cn12
6.00 to 7.00
